system: T1, human CD20 antigen (human, UniProt P11836 1-297)
T1 construct: whole, on cells; also called CD20/CHO cells; CD20 on Raji cells
T1 sequence (looked up): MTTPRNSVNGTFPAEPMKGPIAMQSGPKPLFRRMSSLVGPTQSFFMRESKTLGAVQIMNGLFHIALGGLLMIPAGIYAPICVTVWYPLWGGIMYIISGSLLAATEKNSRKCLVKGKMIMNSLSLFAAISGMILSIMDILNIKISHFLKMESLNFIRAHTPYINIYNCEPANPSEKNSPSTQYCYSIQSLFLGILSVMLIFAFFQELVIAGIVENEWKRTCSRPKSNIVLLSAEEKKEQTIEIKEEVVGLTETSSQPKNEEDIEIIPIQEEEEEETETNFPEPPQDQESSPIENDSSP
protocol_text: CD20/CHO cell-ELISA, antibody at 1 ng/ml
Reported A492 is given for each of the following binders.

{"binder": "Rituximab (c2B8) (antibody, V domains shown) VH: QVQLQQPGAELVKPGASVKMSCKASGYTFTSYNMHWVKQTPGRGLEWIGAIYPGNGDTSYNQKFKGKATLTADKSSSTAYMQLSSLTSEDSAVYYCARSTYYGGDWYFNVWGAGTTVTVSA VL: QIVLSQSPAILSASPGEKVTMTCRASSSVSYIHWFQQKPGSSPKPWIYATSNLASGVPVRFSGSGSGTSYSLTISRVEAEDAATYYCQQWTSNPPTFGGGTKLEIK", "A492, A492": 0.088}
{"binder": "chimeric anti-CD20 monoclonal antibody c1K1712 (antibody, V domains shown, Murine variable regions fused to human immunoglobulin H chain and L chain (kappa) constant regions of vector pNOW-Ab) VH: QVQLQQPGAELVKPGASVKMSCKASGFTFTSYNLHWVKQTPGQGLEWIGAIYPGSGDTSYNQQFKGKATLTADKSSNTAYMQLNSLTSEDSAVYCCARSAMISTGNWYFDYWGQGTTLTVSS VL: QIVLSQSPAILSASPGEKVTMTCRASSSVSYMDWYQQKPGSSPKPWIYATSNLASGVPARFSGSGSGTSYSLTISRVEAEDTATYYCQQWTFNPPTFGSGTKLEIK", "A492, A492": 0.145}
{"binder": "chimeric anti-CD20 monoclonal antibody c1K1422 (antibody, V domains shown, Murine variable regions fused to human immunoglobulin H chain and L chain (kappa) constant regions of vector pNOW-Ab) VH: QVQLQQPGAELVKPGASVKMSCRASGYTFTNYNMHWIKQTPGQGLEWIGAIYPGSGDTSYNRKFKGKATLTADTSSSTAYMQFSSLTSADSAVYYCARFTYYYGGTYGAMDYWGQGTSVTVSL VL: QIVLTQSPPIMSASLGEEITLTCSASSRVSYMLWYQQKSGTSPKLLIYSTSNLASGVPSRFSGSGSGTFYSLTISSVEAEDAADYYCHQWTSNPCTFGGGTKLEIK", "A492, A492": 0.077}
{"binder": "chimeric anti-CD20 monoclonal antibody c1K1228 (antibody, V domains shown, Murine variable regions fused to human immunoglobulin H chain and L chain (kappa) constant regions of vector pNOW-Ab) VH: QVQLQQPGAELVKPGASVKVSCKASGFTFTSYNLHWVKQTPGQGLVWIGAIYPGNGDTSYNQKFRGKATLTADISSSTAYMQLSSLTSEDSAVYYCARYYYGYDAMDYWGQGTSVTVSS VL: EIILTQSPTTMAASPGEKITITCSASSSISSYYLRWYQQKPGFSPKVLIYRTSNLASGVPARFSGSGSGTSYSLTIGTMEAEDVATYYCQQGNTVPLTFGSGTKLEIK", "A492, A492": 0.12}
{"binder": "chimeric anti-CD20 monoclonal antibody c1K1402 (antibody, V domains shown, Murine variable regions fused to human immunoglobulin H chain and L chain (kappa) constant regions of vector pNOW-Ab) VH: QVQLQQPGAELVKPGASVKMSCKASGFTFTSYNMHWVKQTPGQGLEWIGGIYPGNGDTSYNQKFKGKATLTADKSSSTAYMQLSSLTSEDSAVYYCARFYYYGSMGAMDYWGQGTSVTVSS VL: QIVLSQSPAILSASPGEKVTMTCRASSSVSYMHWYQQKPGSSPKPWIYATSNLASGVPARFSGSGSGTSYSLTITRVEAEDAATYYCQQWTFNPPTFGAGTKLELK", "A492, A492": 0.116}
{"binder": "chimeric anti-CD20 monoclonal antibody c1K1791 (antibody, V domains shown, Murine variable regions fused to human immunoglobulin H chain and L chain (kappa) constant regions of vector pNOW-Ab) VH: QIQLVQSGPELKKPGETVKISCKASGYTFTNFGVNWVKQAPGKGLKWMGWINTYTGEPSYADDFKGRFAFSLEASANTAYLQINNLKNDDMSTYFCTRRTNYYGTSYYYAMDYWGQGTSVTVSS VL: STVMTQTPKFLLVSAGDRVTITCKASQSVSNDVAWYQQKPGQSPKVLIYFASNRYTGVPDRFTGSGYGTDFTFTINTVQAEDLAVYFCQQDYSSPLTFGAGTKLELK", "A492, A492": 0.108}
{"binder": "chimeric anti-CD20 monoclonal antibody c1K0924 (antibody, V domains shown, Murine variable regions fused to human immunoglobulin H chain and L chain (kappa) constant regions of vector pNOW-Ab) VH: QVQLQQPGAELVKPGASVKMSCKASGYTFTSYNIHWVKQTPGQGLEWIGAIYPGNGDTSYNQKFKGKATLTSDKSSSTAYMQLSSLTSEDSAVYYCARMSTMITGFDYWGQGTTLTVSS VL: QIVLSQSPAILSASPGEKVTMTCRASSSVSYMHWYQQRPGSSPKPWIYATSNLASGVPARFSGSGSGTSYYFTISRVEAEDAATYYCQQWNSNPPTHGGGTKLEIK", "A492, A492": 0.094}
{"binder": "chimeric anti-CD20 monoclonal antibody c1K1736 (antibody, V domains shown, Murine variable regions fused to human immunoglobulin H chain and L chain (kappa) constant regions of vector pNOW-Ab) VH: QVQLQQPGAELVKPGASVKMSCKASGYTFTTYNLHWVKQTPGQGLEWIGGIYPGNGDTSYNQKFKVKATLTADKSSNTAYMQLSSLTSEDSAVYYCARWIYYGNYEGTLDYWGQGTSVTVSS VL: QIVLSQSPAILSSSPGEKVTMTCRASSSVSYMLWYQQKPGSSPEPWIYATSNLASGVPARFSGGGSGTSYSLTISRVEAEDAATYYCQQWTFNPPTFGGGTKLEIK", "A492, A492": 0.122}
{"binder": "chimeric anti-CD20 monoclonal antibody c1K1782 (antibody, V domains shown, Murine variable regions fused to human immunoglobulin H chain and L chain (kappa) constant regions of vector pNOW-Ab) VH: QVQLQQSGAELAKPGASVKMSCKASGYTFTSYWMHWVKQRPGQGLEWIGYITPSTGYTDYNKKFKDKATLTADRSSSTAYMHLSSLTSEDSAVYYCARSGPYFDVWGAGTTVTVSS VL: DILLTQSPAILFVSPGERVSLSCRASQNIGTSIHWYQQRTNGSPRLLIKYASESFSGIPSRFSGSGSGTDFTLSINSVESEDIADYYCQQSNSWPFTFGSGTKLEIK", "A492, A492": 0.074}
